Values were extracted from PubChem BioAssay AID1159580.

# ASSAY REMARKS: chemical genetic growth profiling, strain panel (AID 1159580);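 also: tested at 20 µM; growth read once vehicle control cultures reached saturation at 30 °C; 1 = growth at the plate median or of vehicle wells; lower values mean less growth of the strain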
# CONDITION DETAILS: S. cerevisiae deletion strains, growth OD, locus YLR268W, strain sec22, active compounds read low
About 2,000 (36%) of roughly 5,500 compounds were called active. About 18% were inconclusive and are not listed. The list shows a part of the results.
Mark Met only when normalized growth stays strictly below 0.9. Values equal to the cut-off are Not met.

COMPOUND	CATEGORY LABEL
Nc1ccc(C(=O)Oc2ccccc2)c(O)c1	Met
CC1=CCc2c(cc3oc(C)cc(=O)c3c2O)OC1	Met
C=C1C2CC[C@@]3(C)[C@H](c4ccoc4)OC(=O)C[C@]13O[C@H]1CC(=O)C(C)(C)[C@H](C(O)C(=O)OC)[C@@]21C (some centres not stated)	Not met
Cn1c(=O)c2[nH]c(C3CCCC3)nc2n(C)c1=O	Not met
COc1c2c(cc3c1OCO3)CC[N+](C)=C2	Not met

Now, please, on to the next compound.
Q) Lab log: compare recorded normalized growth with 0.9; is it strictly lower for `Nc1nc(N)c2nc(-c3ccccc3)c(N)nc2n1` ?
A) Not met

----------
Task for the reader: assign each of the following compounds its reported normalized growth.
# ASSAY REMARKS: chemical genetic growth profiling, strain panel (AID 1159580);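 also: tested at 20 µM; growth read once vehicle control cultures reached saturation at 30 °C; 1 = growth at the plate median or of vehicle wells; lower values mean less growth of the strain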
# CONDITION DETAILS: S. cerevisiae deletion strains, growth OD, locus YOR106W, strain vam3, active compounds read low
Hit rate of the full screen: of about 5,500 compounds, about 2,000 (36%) were called active. Inconclusive results (about 18%) are left out. The list shows a part of the results.
Answers are plain numbers.

COMPOUND	MEASURED QUANTITY	READING
CN1CCN2c3ccccc3Cc3ccccc3C2C1 (stereo not drawn)	normalized growth	0.986

Items follow; give normalized growth for each.
1. COc1ccc(-c2cc(=O)c3c(OC(C)=O)cc(OC(C)=O)cc3o2)cc1
2. C[N+]1(CCCCC[N+]2(C)CCCC2)CCCC1

A)
1. 0.988
2. 1.01

----------
# ASSAY REMARKS: chemical genetic growth profiling, strain panel (AID 1159580);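 also: tested at 20 µM; growth read once vehicle control cultures reached saturation at 30 °C; 1 = growth at the plate median or of vehicle wells; lower values mean less growth of the strain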
# CONDITION DETAILS: S. cerevisiae deletion strains, growth OD, locus YLR221C, strain rsa3, active compounds read low
Hit rate of the full screen: of about 5,500 compounds, about 2,000 (36%) were called active. Roughly 18% stayed inconclusive and do not appear here. The list shows a part of the results.
Task for the reader: assign each of the following compounds its reported normalized growth.
One number for each entry.

See these solved cases before continuing.
COc1ccc(-c2cc(=O)c3c(OC(C)=O)cc(OC(C)=O)cc3o2)cc1 0.973
NCCc1ccc(O)c(O)c1 0.982
NS(=O)(=O)c1cc2c(cc1C(F)(F)F)NCNS2(=O)=O 0.974

Q) Endpoint output: normalized growth of `COc1cc([C@@H]2c3cc4c(cc3[C@H](OC(C)=O)[C@H]3COC(=O)[C@H]23)OCO4)cc(OC)c1OC` . Value?
A) 1.01

----------
# ASSAY REMARKS: chemical genetic growth profiling, strain panel (AID 1159580);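 also: tested at 20 µM; growth read once vehicle control cultures reached saturation at 30 °C; 1 = growth at the plate median or of vehicle wells; lower values mean less growth of the strain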
# CONDITION DETAILS: S. cerevisiae deletion strains, growth OD, locus YLR342W, strain FKS1, active compounds read low
Hit rate of the full screen: of about 5,500 compounds, about 2,000 (36%) were called active. About 18% were inconclusive and are not listed. This is one part of the list.
MEASURED QUANTITY: normalized growth
Give bare numbers.

MOLECULE	MEASURED QUANTITY	READING
Nc1nnc(-c2cccc(Cl)c2Cl)c(N)n1	normalized growth	1.02
CC(=O)O.CC(=O)O.[Cd]	normalized growth	0.862
COc1cc([C@@H]2c3cc4c(cc3[C@H](OC(C)=O)[C@H]3COC(=O)[C@H]23)OCO4)cc(OC)c1OC	normalized growth	1.01
CC(=O)O[C@H]1C[C@@H](O)C(C)(C)C2C[C@@H](OC(C)=O)[C@]3(C)C(CC[C@@]4(C)[C@H](c5ccoc5)OC(=O)C5OC543)[C@]21C (stereo partly drawn)	normalized growth	1.01
[N-]=[N+]=CC(=O)OCC(N)C(=O)O (stereo not drawn)	normalized growth	1.04
COc1c(O)cc2c(-c3ccccc3)cc(=O)oc2c1OC	normalized growth	1

Items follow; give normalized growth for each.
1. CNCCC=C1c2ccccc2CCc2ccccc21
2. Nc1ccc(C(=O)O)c(O)c1
3. O=C(O)/C=C(\CC(=O)O)C(=O)O
4. COC(=O)C1=C(C)NC(C)=C(C(=O)OC)C1c1ccccc1[N+](=O)[O-]
5. COc1c(O)cccc1O
6. CC(C)(O)[C@@H]1CC[C@](C)([C@H]2[C@@H](O)C[C@@]3(C)C4C[C@H](O[C@@H]5O[C@H](CO)[C@@H](O)[C@H](O)[C@H]5O)C5C(C)(C)[C@@H](O[C@@H]6OC[C@@H](O)[C@H](O)[C@H]6O)CC[C@@]56C[C@@]46CC[C@]23C)O1 (stereo partly drawn)

A)
0.91
0.997
0.987
0.924
1.03
1

Q) Endpoint output: normalized growth of COC(=O)C1=C(C)NC(C)=C(C(=O)OCCN(C)Cc2ccccc2)C1c1cccc([N+](=O)[O-])c1 (stereo not drawn) . Value?
A) 0.996
